- measurement target: Leukotriene, Cysteinyl CysLT1 (Cavia porcellus, UniProt Q2NNR5)
- Construct: from tissue; host or cells: guinea pig lung membrane
- Sequence (Q2NNR5 1-340): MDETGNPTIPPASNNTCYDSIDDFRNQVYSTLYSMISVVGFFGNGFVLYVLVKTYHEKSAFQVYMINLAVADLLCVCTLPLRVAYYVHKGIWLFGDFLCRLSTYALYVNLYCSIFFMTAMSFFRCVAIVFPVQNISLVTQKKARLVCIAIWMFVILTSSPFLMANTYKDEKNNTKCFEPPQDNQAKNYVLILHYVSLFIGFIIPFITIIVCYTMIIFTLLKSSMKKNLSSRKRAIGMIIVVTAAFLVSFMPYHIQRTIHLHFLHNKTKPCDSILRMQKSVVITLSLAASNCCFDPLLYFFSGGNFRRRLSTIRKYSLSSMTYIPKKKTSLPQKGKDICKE
- assay method text: receptor radio-ligand-binding assay (Tritiated LTD4 as the ligand), Guinea pig lung membrane
- condition parameters: 0.5 h; 1 nM test compound; 0.2 nM 3H LTD4, Guinea pig lung membrane; read-out: % Inhbition (in nM) 1
- Method: The primary in-vitro biological screening for the compounds carried-out involving receptor radio-ligand-binding assay (Tritiated LTD4 as the ligand) by known methods described in literature [a). Mong et al. European Journal of Pharmacology (102); 1984 1-11b). […] Non Specific Binding is determined by incubating the membrane with 0.2 nM 3H LTD4 in presence of 1 uM of unlabeled LTD4. […] The membrane is counted in a liquid scintillation counter to calculate the bound radioactivity. […]
attribute measured: inhibition at 0.001 µM
Give the value; after it, write the unit.

{"molecule": "C#CCOC(COc1ccccc1C(=O)O)c1cccc(/C=C/c2ccc3ccc(Cl)cc3n2)c1 (stereo not drawn) [Ia.127]", "endpoint result": "50%"}

Parameter requested: inhibition at 0.001 µM. Apply to each item below.
1. O=C(O)c1cc2c(cc1CCC1(c3cccc(/C=C/c4ccc5ccc(Cl)cc5n4)c3)OCCCO1)OCO2 [Ib.133]
2. O=C(c1ccccc1CCC1(c2cccc(/C=C/c3ccc4ccc(Cl)cc4n3)c2)OCCO1)N1CCCC1 [Ib.36]

41%
49%

Values were extracted from patent US9102665B2.
